- assay_overview: Solubility in aqueous solutions after shaking each crystal at 37° C. for 24 hr
- Type: physicochemical
- reported_conditions: thermodynamic from solid, distilled water, 24 hr shaking, concentration of API
measured_quantity: solubility at 24 hr (µg/mL)
Return type: number; implicit unit µg/mL.

Can you share its solubility at 24 hr? I mean this molecule: CCc1cc2c(c(OCC(F)(F)F)c(C(=O)NC3CCN(C(=O)CO)CC3)n2C)c(=O)n1CC(=O)c1ccccc1 [anhydrous crystal of free form, reference compound]
21.5

----------
- assay_overview: Solubility in aqueous solutions after shaking each crystal at 37° C. for 24 hr
- Format: physicochemical
- reported_conditions: Japanese Pharmacopoeia 1st fluid for dissolution test (JP1), simulated gastric fluid, thermodynamic from solid, JP1 (Japanese Pharmacopoeia 1st fluid for dissolution test), 24 hr shaking
measured_quantity: solubility at 24 hr (µg/mL)
Numbers only; they are read as µg/mL.

Item under review: CCc1cc2c(c(OCC(F)(F)F)c(C(=O)NC3CCN(C(=O)CO)CC3)n2C)c(=O)n1CC(=O)c1ccccc1 [anhydrous crystal of free form, reference compound] . Reported solubility at 24 hr?
20.6
